Taken from patent US6630500B2.

Target: VEGF receptor (human flk-1, KDR, VEGFR2) kinase domain (Homo sapiens, UniProt P35968)
Construct: VEGF receptor (human flk-1, KDR, VEGFR2) kinase domain; made in house
Sequence (P35968 834-1162 limits assumed): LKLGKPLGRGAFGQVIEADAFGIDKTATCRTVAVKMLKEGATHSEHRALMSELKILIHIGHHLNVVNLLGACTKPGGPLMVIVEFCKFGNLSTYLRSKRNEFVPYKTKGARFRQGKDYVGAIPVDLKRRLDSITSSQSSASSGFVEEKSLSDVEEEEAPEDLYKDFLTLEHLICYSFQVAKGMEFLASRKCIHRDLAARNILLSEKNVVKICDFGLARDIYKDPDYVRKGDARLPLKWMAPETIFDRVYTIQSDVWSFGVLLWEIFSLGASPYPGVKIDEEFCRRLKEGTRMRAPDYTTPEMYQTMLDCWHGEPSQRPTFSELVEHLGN
Test: Inhibition of VEGF receptor kinase activity (ELISA)
Type: biochemical
Settings: 300 nM compound; 40 μM ATP; read-out: VEGFR2 % inh. @ 300 nM
Assignment: determine reported inhibition at 0.3 µM for the given molecules.
Your answer is read as %, so omit the unit and give the number.

Which measured inhibition at 0.3 µM value corresponds to CC(C)OCc1ccc2c(c1)c1c3c(c4c(c1n2CCCOC(=O)CCCN(C)C)Cc1ccccc1-4)C(=O)NC3 ?
48

Which measured inhibition at 0.3 µM value corresponds to CCSCc1ccc2c(c1)c1c3c(c4c(c1n2CCO)Cc1ccccc1-4)C(=O)NC3 ?
31

Which measured inhibition at 0.3 µM value corresponds to O=C1NCc2c1c1c(c3c2c2cc(CO)ccc2n3CCO)Cc2ccccc2-1 ?
34

Which measured inhibition at 0.3 µM value corresponds to COC(C)c1ccc2[nH]c3c4c(c5c(c3c2c1)CNC5=O)-c1ccccc1C4 (racemic) ?
12

Which measured inhibition at 0.3 µM value corresponds to CC(O)c1ccc2[nH]c3c4c(c5c(c3c2c1)CNC5=O)-c1ccccc1C4 (centres unmarked) ?
37

Which measured inhibition at 0.3 µM value corresponds to CC(C)CC(N)C(=O)OCCCn1c2ccccc2c2c3c(c4c(c21)Cc1ccccc1-4)C(=O)NC3 (centres unmarked) [C, reference compound] ?
17

Which measured inhibition at 0.3 µM value corresponds to O=C1NCc2c1c1c(c3c2c2cc(CSc4ccccn4)ccc2n3CCCO)Cc2ccccc2-1 ?
45

Which measured inhibition at 0.3 µM value corresponds to O=C1NCc2c1c1c(c3c2c2cc(CSc4ncccn4)ccc2n3CCCO)Cc2ccccc2-1 ?
13
